# ASSAYED TARGET: Adenosine receptor A2a (Homo sapiens)
# Sequence (P29274 whole entry): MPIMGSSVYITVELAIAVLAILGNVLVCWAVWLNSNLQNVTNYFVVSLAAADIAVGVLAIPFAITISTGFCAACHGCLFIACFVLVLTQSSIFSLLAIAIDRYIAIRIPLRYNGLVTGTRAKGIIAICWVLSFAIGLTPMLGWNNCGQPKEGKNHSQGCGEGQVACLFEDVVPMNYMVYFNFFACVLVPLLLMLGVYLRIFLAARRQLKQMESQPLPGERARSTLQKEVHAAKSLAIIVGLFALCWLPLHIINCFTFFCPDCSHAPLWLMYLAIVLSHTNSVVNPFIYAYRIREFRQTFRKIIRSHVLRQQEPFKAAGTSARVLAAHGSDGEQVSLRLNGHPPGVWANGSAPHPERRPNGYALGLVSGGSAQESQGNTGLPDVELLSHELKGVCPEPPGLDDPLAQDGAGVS
# ASSAY SUMMARY: Displacement of [3H]ZM 241385 from human adenosine A2A receptor expressed in CHO cells at <=5000 nM after 60 mins by scintillation spectrometry
# Type: cell-based
Classification field: enter Met for inhibition values not below 3%, Not met for values below it.

Sample answers from the record:
CCC1CN2C(=O)N(Cc3ccccc3)c3nc(-c4cc(C)nn4C)[nH]c3C2=N1 (racemic) | Met
CCC1CN2C(=O)N(Cc3ccccc3)c3nc(-c4cc(OC)nn4C)[nH]c3C2=N1 (racemic) | Met
COc1cc(-c2nc3c([nH]2)C2=NC(C)CN2C(=O)N3Cc2ccccc2)on1 (racemic) | Met

Now look at this entry.
Say whether C=CCN1C(=O)N2CC(C)N=C2c2[nH]c(-c3cc(OC)nn3C)nc21 (racemic) shows inhibition of 3% or more. Not met
